Values from patent US20230048132A1

Listing of recorded pIC50 by entry.
molecular target: CDK9-CYCLINT1 (Homo sapiens); construct: purchased Carna; assay: CDK inhibition assay (microfluidic LabChip, IC50 format); format: biochemical; settings: Table 3; purified enantiomers; read-out: CDK9-T (E1/E2)
Sequence (P50750 whole entry): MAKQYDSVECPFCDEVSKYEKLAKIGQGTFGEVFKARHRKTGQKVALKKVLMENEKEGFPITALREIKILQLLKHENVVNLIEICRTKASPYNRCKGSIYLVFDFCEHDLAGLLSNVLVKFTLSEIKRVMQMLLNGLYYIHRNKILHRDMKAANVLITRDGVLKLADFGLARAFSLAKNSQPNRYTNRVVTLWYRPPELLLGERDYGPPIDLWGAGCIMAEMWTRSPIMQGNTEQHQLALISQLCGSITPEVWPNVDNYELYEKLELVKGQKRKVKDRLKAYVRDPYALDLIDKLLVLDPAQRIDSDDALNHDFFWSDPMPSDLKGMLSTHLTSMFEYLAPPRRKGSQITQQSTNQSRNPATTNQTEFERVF
Sequence (O60563 whole entry partner): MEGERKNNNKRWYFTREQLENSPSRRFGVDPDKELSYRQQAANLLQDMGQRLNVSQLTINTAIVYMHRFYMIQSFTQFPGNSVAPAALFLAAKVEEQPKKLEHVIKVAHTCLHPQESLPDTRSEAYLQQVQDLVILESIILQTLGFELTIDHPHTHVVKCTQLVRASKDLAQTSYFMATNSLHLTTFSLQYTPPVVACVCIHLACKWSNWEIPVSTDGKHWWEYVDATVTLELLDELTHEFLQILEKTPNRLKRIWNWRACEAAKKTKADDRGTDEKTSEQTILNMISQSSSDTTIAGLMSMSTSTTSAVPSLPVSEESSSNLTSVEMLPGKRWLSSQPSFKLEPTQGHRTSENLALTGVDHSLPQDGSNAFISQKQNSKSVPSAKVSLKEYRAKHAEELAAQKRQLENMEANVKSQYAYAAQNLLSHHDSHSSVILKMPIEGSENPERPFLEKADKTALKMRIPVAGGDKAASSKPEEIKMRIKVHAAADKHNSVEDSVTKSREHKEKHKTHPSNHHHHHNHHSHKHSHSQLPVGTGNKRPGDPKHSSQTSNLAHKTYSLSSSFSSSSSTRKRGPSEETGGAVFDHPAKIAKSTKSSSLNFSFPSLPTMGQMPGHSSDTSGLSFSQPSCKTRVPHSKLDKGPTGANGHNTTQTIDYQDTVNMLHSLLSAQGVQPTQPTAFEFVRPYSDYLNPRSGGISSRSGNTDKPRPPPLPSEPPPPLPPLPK
pIC50: −log10 of the molar value.

{"columns": ["SMILES_STRUCTURE", "pIC50"],
 "data": [
  ["CN1CCN(c2ccc(Nc3ncc4c(n3)N(C3CCCC3)C(=O)[C@@]3(CCNC3=O)C4)cc2F)CC1", 5.94],
  ["O=C1NCC[C@@]12Cc1cnc(Nc3ccc(N4CCNCC4)c(F)c3)nc1N(C1CCCC1)C2=O", 8.36],
  ["CN1CCN(c2ccc(Nc3ncc4c(n3)N(C3CCCC3)C(=O)[C@]3(CCNC3=O)C4)cc2F)CC1", 8.24],
  ["O=C1NCC[C@@]12Cc1cnc(Nc3ccc(N4CCNCC4)cn3)nc1N(C1CCCC1)C2=O", 6.70]
]}

====

target: CDK4-CYCLIND1 (Homo sapiens, UniProt P11802); assay: CDK inhibition assay (microfluidic LabChip, IC50 format); details: CDK4 CyclinD1 IC50, Table 4a; a second value in parentheses for some compounds
Sequence (P11802 whole entry): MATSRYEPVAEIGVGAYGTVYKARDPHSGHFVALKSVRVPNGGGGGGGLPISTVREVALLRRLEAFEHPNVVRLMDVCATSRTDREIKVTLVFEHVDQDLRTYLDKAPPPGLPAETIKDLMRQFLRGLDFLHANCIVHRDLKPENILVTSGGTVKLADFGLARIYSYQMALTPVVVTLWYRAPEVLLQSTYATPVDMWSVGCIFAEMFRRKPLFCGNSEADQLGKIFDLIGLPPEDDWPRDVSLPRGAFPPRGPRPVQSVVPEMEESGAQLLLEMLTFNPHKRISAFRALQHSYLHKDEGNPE
Sequence (P24385 whole entry partner): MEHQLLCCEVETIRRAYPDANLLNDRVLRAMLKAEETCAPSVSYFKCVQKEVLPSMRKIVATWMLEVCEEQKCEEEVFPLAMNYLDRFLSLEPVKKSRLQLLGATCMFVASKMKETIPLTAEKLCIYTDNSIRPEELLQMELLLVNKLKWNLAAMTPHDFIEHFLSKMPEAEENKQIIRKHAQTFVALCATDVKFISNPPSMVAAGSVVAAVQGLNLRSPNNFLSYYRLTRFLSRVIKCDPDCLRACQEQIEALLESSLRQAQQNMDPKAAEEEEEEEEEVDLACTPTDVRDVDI
ASSAY_ENDPOINT: IC50 (nM)

{"columns": ["SMILES_STRUCTURE", "ASSAY_ENDPOINT", "EXPERIMENTAL_VALUE"],
 "data": [
  ["Cc1cc(N2CCN(C(C)C)CC2)ccc1Nc1ncc2c(n1)N(C1CCCC1)C(=O)[C@]1(CCNC1=O)C2", "IC50", 9.05],
  ["O=C1NCC[C@@]12Cc1cnc(Nc3ccc(N4CCNCC4)nc3)nc1N(C1CCCC1)C2=O", "IC50", 1.22],
  ["O=C1NCC[C@@]12Cc1cnc(N[C@H]3CC[C@H](NC4CCOCC4)CC3)nc1N(C1CCCC1)C2=O", "IC50", 5.56],
  ["O=C1NCC[C@@]12Cc1cnc(Nc3ccc(N4CCNCC4)cn3)nc1N(C1CCCC1)C2=O", "IC50", 1.18]
]}

====

molecular target: CDK9-CYCLINT1 (Homo sapiens); construct: purchased Carna; test: CDK inhibition assay (microfluidic LabChip, IC50 format); type: biochemical; conditions: Table 4a; read-out: CDK9 CyclinT1 IC50
Listing of recorded IC50 by entry.
ASSAY_ENDPOINT: IC50 (nM)

{"columns": ["SMILES_STRUCTURE", "UNITS_OF_MEASURE", "READOUT_RELATION", "EXPERIMENTAL_VALUE"],
 "data": [
  ["O=C1NCC[C@@]12Cc1cnc(Nc3ccc(N4CC5(CNC5)C4)c(F)c3)nc1N(C1CCCC1)C2=O", "nM", "=", 5.74],
  ["COc1cc(N2CCN(C(C)C)CC2)ccc1Nc1ncc2c(n1)N(C1CCCC1)C(=O)[C@]1(CCNC1=O)C2", "nM", "=", 418],
  ["CC(C)N1CCN(c2ccc(Nc3ncc4c(n3)N(C3CCCC3)C(=O)[C@]3(CCNC3=O)C4)nc2)CC1", "nM", "=", 163],
  ["Cn1cc(-c2ccc(Nc3ncc4c(n3)N(C3CCCC3)C(=O)[C@]3(CCNC3=O)C4)cc2)cn1", "nM", "=", 2.92],
  ["CN(C)CCOc1ccc(Nc2ncc3c(n2)N(C2CCCC2)C(=O)[C@]2(CCNC2=O)C3)cc1", "nM", "=", 1.85],
  ["O=C1NCC[C@@]12Cc1cnc(Nc3ccc(N4CCNCC4)cn3)nc1N(C1CCCC1)C2=O", "nM", "=", 120],
  ["CN1CCN(c2ccc(Nc3ncc4c(n3)N(C3CCCC3)C(=O)[C@]3(CCNC3=O)C4)cc2)CC1", "nM", "=", 4.84],
  ["Cc1cc(N2CCNCC2)ccc1Nc1ncc2c(n1)N(C1CCCC1)C(=O)[C@]1(CCNC1=O)C2", "nM", "=", 61.9],
  ["O=C1NCC[C@@]12Cc1cnc(N[C@H]3CC[C@H](NC4CCOCC4)CC3)nc1N(C1CCCC1)C2=O", "nM", "<", 3.2],
  ["CC(C)n1cc(-c2ccc(Nc3ncc4c(n3)N(C3CCCC3)C(=O)[C@]3(CCNC3=O)C4)nc2)cn1", "nM", "=", 390],
  ["Cc1cc(Nc2ncc3c(n2)N(C2CCCC2)C(=O)[C@]2(CCNC2=O)C3)ccc1N1CCN(C(C)C)CC1", "nM", "=", 5.25],
  ["O=C1NCC[C@@]12Cc1cnc(Nc3ccc(N4CCNCC4)nc3)nc1N(C1CCCC1)C2=O", "nM", "=", 7.52],
  ["CN(C)[C@@H]1CCN(c2ccc(Nc3ncc4c(n3)N(C3CCCC3)C(=O)[C@]3(CCNC3=O)C4)cc2F)C1", "nM", "=", 2.73],
  ["CN1CCN(c2ccc(Nc3ncc4c(n3)N(C3CCCC3)C(=O)N(c3ccccc3F)C4)cc2F)CC1", "nM", ">", 10000],
  ["O=C1NCC[C@@]12Cc1cnc(N[C@H]3CC[C@H](NC4CCOCC4)CC3)nc1N(C13CC(C1)C3)C2=O", "nM", "=", 16.1]
]}
